- system under test: Fuc(a1-2)[Gal(a1-3)]Gal(b1-3)GlcNAc
- assay notes: glycan array binding signal (z-score within array); higher = stronger binding
- measurement conditions: glycan notation: IUPAC condensed, linker removed
Shown is part of a subset that was picked to be rich in the strongest signals.
Catalogue of binders with associated glycan array binding signal (z-score)
Respond numerically, and do not add a unit to the figure.

Below, each entry is followed by its recorded glycan array binding signal (z-score) result.
# binder, glycan array binding signal (z-score)
rows = [
    ("RbmA (Vibrio cholerae), A0A2H4NFB8 (protein) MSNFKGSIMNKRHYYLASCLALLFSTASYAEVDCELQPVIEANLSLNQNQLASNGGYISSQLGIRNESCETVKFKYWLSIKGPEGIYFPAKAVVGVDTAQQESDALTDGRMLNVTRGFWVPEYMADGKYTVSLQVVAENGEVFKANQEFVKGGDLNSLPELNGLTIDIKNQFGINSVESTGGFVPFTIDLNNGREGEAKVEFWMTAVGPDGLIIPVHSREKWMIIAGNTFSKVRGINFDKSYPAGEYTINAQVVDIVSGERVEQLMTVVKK", 1.13),
    ("Epa3to2 (Candida glabrata) (protein) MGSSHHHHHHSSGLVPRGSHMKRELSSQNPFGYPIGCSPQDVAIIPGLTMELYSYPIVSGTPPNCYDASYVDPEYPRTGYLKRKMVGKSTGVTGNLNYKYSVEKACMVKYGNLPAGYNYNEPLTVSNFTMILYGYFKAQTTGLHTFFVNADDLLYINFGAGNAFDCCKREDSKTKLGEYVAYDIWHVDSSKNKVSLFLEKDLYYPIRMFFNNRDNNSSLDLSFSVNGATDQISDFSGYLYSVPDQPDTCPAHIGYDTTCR", -0.392),
    ("Tp0751, 83732 (protein) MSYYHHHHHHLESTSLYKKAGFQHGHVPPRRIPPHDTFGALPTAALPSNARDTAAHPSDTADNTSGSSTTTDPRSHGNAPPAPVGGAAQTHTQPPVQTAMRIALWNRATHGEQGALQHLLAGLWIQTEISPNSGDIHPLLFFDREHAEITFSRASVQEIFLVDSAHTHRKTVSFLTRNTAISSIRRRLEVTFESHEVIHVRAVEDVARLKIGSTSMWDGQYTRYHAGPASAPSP", 1.77),
    ("LF82 (Escherichia coli) (protein) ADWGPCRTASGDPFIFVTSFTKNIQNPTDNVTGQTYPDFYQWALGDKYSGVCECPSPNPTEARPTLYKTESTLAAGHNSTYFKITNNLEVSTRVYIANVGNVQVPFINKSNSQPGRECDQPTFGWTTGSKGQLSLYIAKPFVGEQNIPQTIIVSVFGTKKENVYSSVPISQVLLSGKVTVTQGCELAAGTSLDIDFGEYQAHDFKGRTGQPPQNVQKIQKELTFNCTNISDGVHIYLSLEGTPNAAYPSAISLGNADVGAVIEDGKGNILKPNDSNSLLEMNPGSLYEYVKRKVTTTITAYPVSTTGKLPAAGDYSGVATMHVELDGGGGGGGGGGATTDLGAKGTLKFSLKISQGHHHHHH", -0.338),
]

Lookup: // returns reported glycan array binding signal (z-score) for input rPitB (Streptococcus pneumoniae), A0A0I7U739 (protein) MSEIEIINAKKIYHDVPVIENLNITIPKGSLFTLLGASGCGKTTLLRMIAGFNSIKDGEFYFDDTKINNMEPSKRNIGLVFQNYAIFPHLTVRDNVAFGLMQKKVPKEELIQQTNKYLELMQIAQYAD
Found: -0.113

Lookup: // returns reported glycan array binding signal (z-score) for input LecB LY19 (Pseudomonas aeruginosa) (protein) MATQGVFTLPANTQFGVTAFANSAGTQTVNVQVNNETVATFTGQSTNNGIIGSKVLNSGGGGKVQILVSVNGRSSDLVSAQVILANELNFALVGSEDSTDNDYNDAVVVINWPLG
Found: -0.452
